B1: CD69 (parent)
chain: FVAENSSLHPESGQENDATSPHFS

- Variants of: B1
- Method description: protein stability index of a GFP-peptide fusion (GPS, HEK-293T) (PSI 1-6); higher = more stable;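 also: lentivirally expressed fusions sorted by FACS into six bins by GFP to DsRed ratio, PSI derived from sequencing read proportions per bin multiplied by bin number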
- Study conditions: c terminus: a fixed tail appended
Task for the reader: assign each of the following variants its reported protein stability index.
# respond with the number and nothing more

Any idea what its protein stability index is? The variant is `S12Y` 2.39

And what about the variant `H22Y` ? 1.72

And what about the variant `P21I` ? 2.65

And what about the variant `V2A` ? 4.94

And what about the variant `S20I` ? 3.02

And what about the variant `A3W` ? 2.82

And what about the variant `N5P` ? 2.56

And what about the variant `E15C` ? 2.57

And what about the variant `D17I` ? 2.69

And what about the variant `N5A` ? 3.1

And what about the variant `L8H` ? 3.04

And what about the variant `G13C` ? 2.89

And what about the variant `P21C` ? 2.64

And what about the variant `F1N` ? 5.39

And what about the variant `A18K` ? 2.61

And what about the variant `H9D` ? 3.8

And what about the variant `P21T` ? 2.86

And what about the variant `S20K` ? 2.71

And what about the variant `N16M` ? 2.56

And what about the variant `S12A` ? 2.99

And what about the variant `S7V` ? 2.73

And what about the variant `H22W` ? 2.72

And what about the variant `N16E` ? 3.05

And what about the variant `G13A` ? 2.69

And what about the variant `L8W` ? 1.72

And what about the variant `S6A` ? 2.96

And what about the variant `N16R` ? 2.66

And what about the variant `N16I` ? 3.01

And what about the variant `E15G` ? 2.59

And what about the variant `E4V` ? 3.2

And what about the variant `H9Y` ? 2.88

And what about the variant `E11A` ? 2.51

And what about the variant `E11Y` ? 2.22

And what about the variant `E4K` ? 2.89

And what about the variant `E15W` ? 1.95

And what about the variant `S24F` ? 2.27

And what about the variant `E4F` ? 2.18

And what about the variant `E11F` ? 1.82

And what about the variant `S6Q` ? 3.08

And what about the variant `S7G` ? 3.29

And what about the variant `D17K` ? 2.2

And what about the variant `V2W` ? 4.86

And what about the variant `E15Y` ? 2.08

And what about the variant `V2S` ? 5.39

And what about the variant `H22N` ? 3.21

And what about the variant `S12V` ? 3.42

And what about the variant `T19N` ? 2.9

And what about the variant `L8F` ? 2.4

And what about the variant `E15T` ? 2.78

And what about the variant `N16G` ? 2.88

And what about the variant `P10D` ? 3.32

And what about the variant `N16K` ? 3.29

And what about the variant `T19V` ? 2.77

And what about the variant `G13Y` ? 3.06

And what about the variant `H9A` ? 3.38

And what about the variant `Q14G` ? 2.58

And what about the variant `S24Q` ? 2.78

And what about the variant `H22L` ? 2.64

And what about the variant `V2G` ? 5.26

And what about the variant `G13N` ? 3.33

And what about the variant `S6C` ? 2.46

And what about the variant `N5Q` ? 3.22

And what about the variant `S6I` ? 2.38

And what about the variant `F1I` ? 5.04

And what about the variant `T19E` ? 4.03

And what about the variant `S7Q` ? 3.37

And what about the variant `S24N` ? 2.92

And what about the variant `N16T` ? 2.8
